Data origin: patent EP0311632B1

# assay_procedure: Solubility of N-alkyl pyrrolidones, 10% by weight in various liquids
# Type: physicochemical
# condition_context: Water, 25°C ± 1°C

{"compound": "CCCCCCCCCCCCCCN1CCCC1=O [N-tetradecyl-2-pyrrolidone]", "10% PRODUCT SOLUBILITY": "S*"}
{"compound": "CCCCCCCCN1CCCC1=O [N-octyl-2-pyrrolidone]", "10% PRODUCT SOLUBILITY": "I"}
{"compound": "CCCCCCCCCCCCN1CCCC1=O [N-dodecyl-2-pyrrolidone]", "10% PRODUCT SOLUBILITY": "S*"}
{"compound": "CCCCCCCCCCN1CCCC1=O [N-decyl-2-pyrrolidone]", "10% PRODUCT SOLUBILITY": "PS*"}

###

# assay_procedure: Surface activity parameters calculated from surface tension measurements (Gibbs adsorption equation)
# Type: physicochemical
# condition_context: area of the molecule at the interface
Here, each record is paired with measured am data.

{"compound": "CCCCCCCCCCN1CCCC1=O", "result": "36.1 (Å)^2"}

[in] For the compound CCCCCCCCCCCC[N+](C)(C)[O-] [lauryl dimethyl amine oxide, reference compound] , what am is on record?
[out] 59.3 (Å)^2

[in] For the compound CCCCCCCCCCCCCCN1CCCC1=O , what am is on record?
[out] 53.6 (Å)^2

[in] For the compound CCCCCCCCCCCCN1CCCC1=O , what am is on record?
[out] 36.9 (Å)^2

[in] For the compound CCCCCCCCN1CCCC1=O , what am is on record?
[out] 39.5 (Å)^2

###

# assay_procedure: Surface activity parameters calculated from surface tension measurements (Gibbs adsorption equation)
# Assay type: physicochemical
# condition_context: negative logarithm of surfactant concentration required to lower surface tension by 20 dynes/cm
Decision: pC-20 >= 5 yields criterion met, all other cases yield criterion not met.

{"molecule": "CCCCCCCCCCN1CCCC1=O [N-decyl-2-pyrrolidone]", "assigned_class": "criterion not met"}
{"molecule": "CCCCCCCCN1CCCC1=O [N-octyl-2-pyrrolidone]", "assigned_class": "criterion not met"}
{"molecule": "CCCCCCCCCCCC[N+](C)(C)[O-] [lauryl dimethyl amine oxide, reference compound]", "assigned_class": "criterion met"}
{"molecule": "CCCCCCCCCCCCN1CCCC1=O [N-dodecyl-2-pyrrolidone]", "assigned_class": "criterion met"}

Turning now to a further molecule:
[in] Textbook exercise: given the entry CCCCCCCCCCCCCCN1CCCC1=O [N-tetradecyl-2-pyrrolidone] , state whether its pC-20 is greater than or equal to 5.
[out] criterion met

###

# assay_procedure: pH of product, 10% in 50/50 isopropyl alcohol-water
# Format: physicochemical
Here, each record is paired with measured pH data.
Could you respond with only the numeric value?

Worked examples, 3 molecules total:
{"molecule": "CCCCCCCCN1CCCC1=O [N-octyl-2-pyrrolidone]", "attribute_measured": "pH", "numeric_value": 6.5}
{"molecule": "CCCCCCCCCCN1CCCC1=O [N-decyl-2-pyrrolidone]", "attribute_measured": "pH", "numeric_value": 5.4}
{"molecule": "CCCCCCCCCCCCCCN1CCCC1=O [N-tetradecyl-2-pyrrolidone]", "attribute_measured": "pH", "numeric_value": 5.9}

Kindly review the next molecule as well.
[in] For the molecule CCCCCCCCCCCCN1CCCC1=O [N-dodecyl-2-pyrrolidone] , what pH is on record?
[out] 7.3

###

# assay_procedure: Solubility of N-alkyl pyrrolidones, 10% by weight in various liquids
# Format: physicochemical
# Set-up: key: I: insoluble; PS: partially soluble (cloudy translucent); S: soluble, clear; *: Soluble with slight haze; **: Very slight precipitation
# condition_context: Heptane, 25°C ± 1°C
attribute_measured: 10% PRODUCT SOLUBILITY

{"line_notation": "CCCCCCCCCCCCN1CCCC1=O", "attribute_measured": "10% PRODUCT SOLUBILITY", "result": "S"}
{"line_notation": "CCCCCCCCCCCCCCN1CCCC1=O", "attribute_measured": "10% PRODUCT SOLUBILITY", "result": "S"}
{"line_notation": "CCCCCCCCCCN1CCCC1=O", "attribute_measured": "10% PRODUCT SOLUBILITY", "result": "S"}
{"line_notation": "CCCCCCCCN1CCCC1=O", "attribute_measured": "10% PRODUCT SOLUBILITY", "result": "S"}

###

# assay_procedure: Solubility of N-alkyl pyrrolidones, 10% by weight in various liquids
# Format: physicochemical
# Parameters: key: I: insoluble; PS: partially soluble (cloudy translucent); S: soluble, clear; *: Soluble with slight haze; **: Very slight precipitation
# condition_context: Paraffin Oil, 25°C ± 1°C

{"line_notation": "CCCCCCCCCCN1CCCC1=O", "10% PRODUCT SOLUBILITY": "S"}
{"line_notation": "CCCCCCCCCCCCN1CCCC1=O", "10% PRODUCT SOLUBILITY": "PS"}
{"line_notation": "CCCCCCCCN1CCCC1=O", "10% PRODUCT SOLUBILITY": "S"}
{"line_notation": "CCCCCCCCCCCCCCN1CCCC1=O", "10% PRODUCT SOLUBILITY": "S"}

###

# assay_procedure: Viscosity (Brookfield Viscometer, LVT Model)
# Type: physicochemical
# condition_context: product as such, stated in description and preparation examples
Here, each record is paired with measured VISCOSITY data.
A number alone suffices; assume cps.

{"compound": "CCCCCCCCCCCCCCN1CCCC1=O [N-tetradecyl-2-pyrrolidone]", "numeric_value": 2}
{"compound": "CCCCCCCCCCN1CCCC1=O [N-decyl-2-pyrrolidone]", "numeric_value": 12}
{"compound": "CCCCCCCCN1CCCC1=O [N-octyl-2-pyrrolidone]", "numeric_value": 8}

[in] For the compound CCCCCCCCCCCCN1CCCC1=O [N-dodecyl-2-pyrrolidone] , what VISCOSITY is on record?
[out] 17

###

# assay_procedure: Solubility of N-alkyl pyrrolidones, 10% by weight in various liquids
# Assay type: physicochemical
# condition_context: room temperature, 10% concentration, in words

{"line_notation": "CCCCCCCCCCCCCCN1CCCC1=O", "solubility in water": "completely soluble"}
{"line_notation": "CCCCCCCCCCCCN1CCCC1=O", "solubility in water": "completely soluble"}

###

Here, each record is paired with measured Surface Tension of Aqueous Solutions data.
# assay_procedure: Surface tension of aqueous solutions (Fisher Surface Tensiomat, ring tensiometer)
# Format: physicochemical
# condition_context: 0.01% solution in distilled water, 25°C.

Worked examples, 3 molecules total:
{"line_notation": "CCCCCCCCCCN1CCCC1=O", "Surface Tension of Aqueous Solutions": "27.8 dynes/cm"}
{"line_notation": "CCCCCCCCN1CCCC1=O", "Surface Tension of Aqueous Solutions": "54.25 dynes/cm"}
{"line_notation": "CCCCCCCCCCCCCCN1CCCC1=O", "Surface Tension of Aqueous Solutions": "26.5 dynes/cm"}

Kindly review the next molecule as well.
[in] For the molecule CCCCCCCCCCCCN1CCCC1=O , what Surface Tension of Aqueous Solutions is on record?
[out] 27.6 dynes/cm

###

Here, each record is paired with measured VISCOSITY data.
# assay_procedure: Viscosity (Brookfield Viscometer, LVT Model)
# Type: physicochemical
# condition_context: 100%, about 25°C., #2 spindle 30 rpm
# Method: The viscosities in cps of the following surfactants at various concentration in distilled water were measured at about 25°C. using a Brookfield Viscometer (LVT Model). The above viscosity of alkyl pyrrolidones and their aqueous solutions were obtained usinq a #2 spindle at a speed of 30 rpm, and a #2 spindle at a speed of 60 rpm respectively.
A number alone suffices; assume CPS.

Worked examples, 3 molecules total:
{"line_notation": "CCCCCCCCCCN1CCCC1=O", "numeric_value": 12.0}
{"line_notation": "CCCCCCCCCCCCN1CCCC1=O", "numeric_value": 17.0}
{"line_notation": "CCCCCCCCCCCCCCN1CCCC1=O", "numeric_value": 20.0}

[in] For the molecule CCCCCCCCN1CCCC1=O , what VISCOSITY is on record?
[out] 8.0

###

# assay_procedure: Surface activity parameters calculated from surface tension measurements (Gibbs adsorption equation)
# Assay type: physicochemical
# condition_context: critical micelle concentration, calculated from surface tension data
attribute_measured: CMC (µM)
A number alone suffices; assume µM.

[in] For the molecule CCCCCCCCCCCCCCN1CCCC1=O , what CMC is on record?
[out] 57

[in] For the molecule CCCCCCCCCCCCN1CCCC1=O , what CMC is on record?
[out] 47

[in] For the molecule CCCCCCCCCCN1CCCC1=O , what CMC is on record?
[out] 440

###

# assay_procedure: Cloud point of 10% aqueous solutions
# Assay type: physicochemical
# condition_context: 10% aqueous solution
# Description: The higher the cloud point, the more soluble, i.e. hydrated, the surfactant.
Here, each record is paired with measured Cloud Point data.

{"compound": "O=C1CCCN1C1CCCCC1 [N-cyclohexyl pyrrolidone, reference compound]", "Cloud Point": "55 °C"}
{"compound": "CCCCCCCCCCCCN1CCCC1=O", "Cloud Point": "15-19 °C"}

[in] For the compound CCCCCCCCCCCCCCN1CCCC1=O , what Cloud Point is on record?
[out] 33 °C

[in] For the compound CCCCCCCCCCN1CCCC1=O , what Cloud Point is on record?
[out] 19 °C

[in] For the compound CCCCCCCCN1CCCC1=O , what Cloud Point is on record?
[out] < 0 °C
